# Protocol description: qHTS of pediatric cancer cell lines to identify multiple opportunities for drug repurposing: Primary screen for Saos-2 cells (AID 1347097); further: nearly all actives have a fitted effect of over 40% in size
# Condition: Saos-2 viability, CellTiter-Glo ATP luminescence, 48 h; series mostly up to 46 µM
Records with an inconclusive call do not appear. Active and inactive are the calls of the source. The call rests on the fitted dose curve; in most records, active means well fitted cell-killing curve with a large enough effect; inconclusive means small, poorly fitted or top-dose-only effect; inactive means no such curve, though single readings can be large or run the other way.
Pick from active, inactive when you respond.

Ask | How was CCN1CCN(C(=O)Cc2ccc(Nc3ncc(F)c(Nc4ccc(C(=O)Nc5ccccc5Cl)cc4)n3)cc2)CC1 classified in this test?
Reply | active

Ask | How was C[C@@H]1CC[C@@]2(OC1)O[C@H]1C[C@H]3[C@@H]4CC=C5C[C@@H](O[C@@H]6O[C@H](CO)[C@@H](O[C@@H]7O[C@@H](C)[C@H](O)[C@@H](O)[C@@H]7O)[C@H](O)[C@@H]6O[C@@H]6O[C@@H](C)[C@H](O)[C@@H](O)[C@@H]6O)CC[C@]5(C)[C@@H]4CC[C@]3(C)[C@@H]1[C@H]2C classified in this test?
Reply | active

---
Ask | How was CN[C@@H](C)[C@H](O)c1ccccc1 classified in this test?
Reply | inactive

Ask | How was O=S(=O)(CC1CS1)c1ccc(Oc2ccccc2)cc1 (centres undefined) classified in this test?
Reply | active

Ask | How was CN1[C@H]2CC(O)C[C@H]1[C@H]1O[C@H]12 (some centres undefined) classified in this test?
Reply | active

Ask | How was C[C@H]1CCCC=CC2C[C@H](O)C[C@@H]2[C@H](O)C=CC(=O)O1 (some centres undefined) classified in this test?
Reply | active

Ask | How was CCNC(=O)C[C@@H]1N=C(c2ccc(Cl)cc2)c2cc(OC)ccc2-n2c(C)nnc21 classified in this test?
Reply | active

====

# Assay system: Pyruvate kinase (Leishmania mexicana) (UniProt Q27686)
# Protocol description: qHTS Validation Assay for Inhibitors of Leishmania Mexicana Pyruvate Kinase (AID 945);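 further: 0% = DMSO only neutral control wells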
# Condition: purified L. mexicana pyruvate kinase, enzyme activity, E451W mutant enzyme; series mostly up to 57.5 µM
Activity calls are given as the source filed them. Calls follow the shape of the dose curve; as a rule, active = well fitted inhibition curve with a large enough effect; inconclusive = small, poorly fitted or top-dose-only effect; inactive = no such curve, though single readings can be large or run the other way.
Measurement name: outcome

Kindly note: Pyruvate kinase (Leishmania mexicana) (UniProt Q27686), C[C@]12N[C@H](Cc3ccccc31)c1ccccc12 , outcome value reported: inactive

Kindly note: Pyruvate kinase (Leishmania mexicana) (UniProt Q27686), Cc1c(C(=O)c2cccc3ccccc23)c2cccc3c2n1[C@H](CN1CCOCC1)CO3 , outcome value reported: inactive

Kindly note: Pyruvate kinase (Leishmania mexicana) (UniProt Q27686), Cc1nccc2c1[nH]c1ccccc12 , outcome value reported: inactive

====

# Protocol description: Quantitative High-Throughput drug screen in 47 multiple myeloma cell lines against the NCATS MIPE library collection: KMS11_JCRBsus cell viability assay (AID 1919873); further: nearly all actives have a fitted effect of over 50% in size
# Condition: KMS11 myeloma viability, CellTiter-Glo ATP luminescence, 48 h; series mostly up to 45.8 µM
Records with an inconclusive call do not appear. Active and inactive are the calls of the source. Calls follow the shape of the dose curve; as a rule, active = well fitted cell-killing curve with a large enough effect; inconclusive = small, poorly fitted or top-dose-only effect, or effect the other way; inactive = no such curve, though single readings can be large or run the other way.
Pick from active, inactive when you respond.

See these solved cases before continuing.
Ask | How was C[C@@H]1O[C@@H](O[C@@H]2C=C3CC[C@@H]4[C@@H](CC[C@]5(C)[C@H](c6ccc(=O)oc6)CC[C@@]45O)[C@@]3(C)CC2)[C@H](O)[C@H](O)[C@H]1O classified in this test?
Reply | active

Ask | How was COc1ccc2c(c1)[C@]13CCCCC1C(C2)N(C)CC3 (some centres not stated) classified in this test?
Reply | inactive

Ask | How was C[C@@H]1[C@H](O)[C@@H](C)C=CC=CCCC=CC=CC=CC=C[C@H](O[C@H]2O[C@@H](C)[C@H](O)[C@@H](N)[C@@H]2O)CC2O[C@](O)(C[C@@H](O)[C@H](O)CC[C@@H](O)C[C@@H](O)C[C@@H](O)CC(=O)O[C@H]1C)C[C@H](O)[C@H]2C(=O)O classified in this test?
Reply | inactive

Ask | How was O=c1[nH]c2ccc(Cl)cc2c(N[C@@H]2CN3CCC2CC3)c1-c1nc2ccccc2[nH]1 classified in this test?
Reply | active

Ask | How was Cc1nc(-c2ccc(-c3ccc(C(=O)N4CCc5cc6c(cc54)C4(CCN(C)CC4)CO6)cc3)c(C)c2)no1 classified in this test?
Reply | inactive

Ask | How was C[C@]12CC[C@H]3[C@@H](CCC4=CC(=O)CC[C@@]43C)[C@H]1CC[C@H]2OC(=O)CCC1CCCC1 classified in this test?
Reply | inactive

Now, please, on to the next compound.
Ask | How was COc1ccc2c(c1)CN(C)CC2c1ccc(Cl)c(Cl)c1 (configuration not stated) classified in this test?
Reply | active

====

# Protocol description: NFAT Signaling Pathway (AID 444);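 further: carbachol stimulus at about its EC50 of 1 µM final; on the % scale 0 is the no-effect control and ±100 the full control effect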
# Condition: Jurkat NFAT-bla M1, carbachol, beta-lactamase ratio, 5 h; at 17.2 µM (top of the series)
Records with an inconclusive call do not appear. Active and inactive are the calls of the source. Calls come from the whole dose curve; as a rule, active = well fitted curve in either direction with a large enough effect (not every such curve was filed as active); inconclusive = small, poorly fitted or top-dose-only effect, or another doubt; inactive = flat fitted curve, though single readings scatter.
Pick from class 1 = active, class 0 = inactive when you respond.

See these solved cases before continuing.
Ask | How was O=c1cccc2n1CC1CNC[C@H]2C1 classified in this test?
Reply | class 0

Ask | How was CCCCc1ccc(C(=O)O)nc1 classified in this test?
Reply | class 0

Ask | How was CC[C@@H]1C(=O)OC[C@@H]1Cc1cncn1C classified in this test?
Reply | class 1

Now, please, on to the next molecule.
Ask | How was NCCc1c[nH]c2ccc(O)cc12 classified in this test?
Reply | class 0

====

# Protocol description: qHTS profiling of the MIPE4 collection as inhibitors of Plasmodium falciparum (DD2) proliferation (AID 743345)
# Condition: P. falciparum Dd2 in erythrocytes, SYBR Green DNA, 72 h; at 28.5 µM (top of the series) unless noted
# Description: Plasmodium falciparum is a virulent malarial parasite that kills 1-2 million people worldwide each year. […] Because mature erythrocytes lack DNA, only Plasmodium-derived DNA is detected. The SYBR Green viability assay was adapted from a method described previously (Plouffe et al., 2008). […] The following morning, fluorescence intensity at 485(14) nm excitation and 535(25) nm emission wavelengths was measured on an EnVision (Perkin Elmer) plate reader. […]
Recorded parasite growth remaining, % of DMSO control (lower = more inhibition) values for a group of compounds are listed next.

Illustrative cases are given below, each with its answer.
CCC(=O)OC1CCC2C3CCC4=CC(=O)CC[C@@]4(C)C3CC[C@]12C (stereo not given in full) has a reported parasite growth remaining, % of DMSO control (lower = more inhibition) of 96.4%

CC(C)(C)c1[nH]cnc1C=c1[nH]c(=O)c(=Cc2ccccc2)[nH]c1=O has a reported parasite growth remaining, % of DMSO control (lower = more inhibition) of 41.8% [at 57.5 µM]

O=c1cccc2n1CC1CNC[C@H]2C1 has a reported parasite growth remaining, % of DMSO control (lower = more inhibition) of 90.9%

COC[C@H]1OC(=O)c2coc3c2[C@@]1(C)C1=C(C3=O)[C@@H]2CC[C@H](O)[C@@]2(C)C[C@@H]1OC(C)=O has a reported parasite growth remaining, % of DMSO control (lower = more inhibition) of 83.2%

---
Cc1ccccc1-n1c(Cn2ncc3c(N)ncnc32)nc2cccc(C)c2c1=O has a reported parasite growth remaining, % of DMSO control (lower = more inhibition) of 94.1%

====

# Protocol description: Cell Viability - LYMP2-002 (AID 977);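 further: compound exposure lasted 24 h at 37 °C; plate controls were DMSO only for no effect and 92 µM tetraoctylammonium bromide for full effect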
# Condition: LYMP2-002 lymphoblastoid cell viability, qHTS; series mostly up to 92.2 µM
Results filed as inconclusive are left out. Active and inactive are the calls of the source. Calls come from the whole dose curve; as a rule, active = well fitted cell-killing curve with a large enough effect; inconclusive = small, poorly fitted or top-dose-only effect; inactive = flat fitted curve, though single readings scatter.
Pick from yes (1) (active), no (0) (inactive) when you respond.

See these solved cases before continuing.
Ask | How was C1CCC(NC2CCCCC2)CC1 classified in this test?
Reply | no (0)

Ask | How was O=[N+]([O-])c1c2ccccc2cc2ccccc12 classified in this test?
Reply | no (0)

Ask | How was COc1ccc(C(c2ccc(OC)cc2)C(Cl)(Cl)Cl)cc1 classified in this test?
Reply | no (0)

---
Ask | How was O=C(O)C(Cl)Cl classified in this test?
Reply | no (0)

Ask | How was CCOCCOC(C)=O classified in this test?
Reply | no (0)

Ask | How was c1cc2ccc3cccc4ccc(c1)c2c34 classified in this test?
Reply | no (0)

Ask | How was Nc1ccc([N+](=O)[O-])cc1 classified in this test?
Reply | no (0)

Ask | How was Nc1ccc(Cl)cc1N classified in this test?
Reply | no (0)

Ask | How was COC(C)(C)CCCC(C)C/C=C/C(C)=C/C(=O)OC(C)C (centres undefined) classified in this test?
Reply | no (0)

====

# Tested on: MCC-26
# Protocol description: qHTS assay to identify novel small-molecules to repurpose for Merkel cell carcinoma treatment (AID 1296009); further: on the % scale 0 is the no-effect control and ±100 the full control effect; nearly all actives have a fitted effect of over 60% in size
# Condition: MCC and control cell lines, CellTiter-Glo viability, 72 h; series mostly up to 46 µM
Records with an inconclusive call do not appear. Calls of active or inactive are those of the source. Calls come from the whole dose curve; as a rule, active = well fitted inhibition curve with a large enough effect; inconclusive = small, poorly fitted or top-dose-only effect; inactive = flat fitted curve, though single readings scatter.
Pick from True (active), False (inactive) when you respond.

See these solved cases before continuing.
Ask | How was CCN1CCN(C(=O)Cc2ccc(Nc3ncc(F)c(Nc4ccc(C(=O)Nc5ccccc5Cl)cc4)n3)cc2)CC1 classified in this test?
Reply | False

Ask | How was COC(C)(C)CCCC(C)C/C=C/C(C)=C/C(=O)OC(C)C (stereo not given) classified in this test?
Reply | False

---
Ask | How was O=[N+]([O-])c1ncc[nH]1 classified in this test?
Reply | False

Ask | How was CC(=O)Nc1ccc(OC[C@](C)(O)C(=O)Nc2ccc([N+](=O)[O-])c(C(F)(F)F)c2)cc1 classified in this test?
Reply | False
